Origin of values: the NIST ThermoML archive (doi:10.1021/je900757k)

The following compounds are listed with their measured isobaric coefficient of expansion values.
- protocol_summary: isobaric coefficient of expansion
- condition_context: 298.15 K; 35000 kPa; Liquid; DSC

chemical_structure	assay_metric	test_value
CCCCCCCCCCCCCC	isobaric coefficient of expansion	0.00078 1/K
CCCCCCCCCC	isobaric coefficient of expansion	0.000849 1/K

Prompt line: Can you look up the measured isobaric coefficient of expansion of ClC(Cl)(Cl)Cl for me?
Response line: 0.00102 1/K

Prompt line: What does the record list as isobaric coefficient of expansion for CCCCCCCCCCCCCCC ?
Response line: 0.000772 1/K

Prompt line: Recorded isobaric coefficient of expansion for CCCCCCCCCCCC , please?
Response line: 0.000807 1/K

Prompt line: Recorded isobaric coefficient of expansion of CCCCCCCCCCC , please.
Response line: 0.000825 1/K

Prompt line: Need isobaric coefficient of expansion, item c1ccccc1
Response line: 0.00103 1/K

Prompt line: Given the entry CCCCCCCCC , report its measured isobaric coefficient of expansion.
Response line: 0.000878 1/K

Prompt line: Item under review: CCCCCCCCCCCCC . Reported isobaric coefficient of expansion?
Response line: 0.000782 1/K

---

- protocol_summary: isobaric coefficient of expansion
- condition_context: 338.15 K; 15000 kPa; Liquid; DSC
assay_metric: isobaric coefficient of expansion

chemical_structure	isobaric coefficient of expansion
c1ccccc1	0.00118 1/K
ClC(Cl)(Cl)Cl	0.00119 1/K
CCCCCCCCC	0.00103 1/K
CCCCCCCCCCCC	0.000918 1/K
CCCCCCCCCCCCCC	0.000863 1/K

Prompt line: Value lookup for isobaric coefficient of expansion; key = CCCCCCCCCCCCCCC
Response line: 0.000846 1/K

Prompt line: Entry under review: CCCCCCCCCCC . Reported isobaric coefficient of expansion?
Response line: 0.000946 1/K

Prompt line: Look up isobaric coefficient of expansion for this compound: CCCCCCCCCCCCC
Response line: 0.000882 1/K

Prompt line: Fill in the blank: the reported isobaric coefficient of expansion of CCCCCCCCCC is ____.
Response line: 0.000987 1/K

---

- protocol_summary: isobaric coefficient of expansion
- condition_context: 328.15 K; 55000 kPa; Liquid; DSC
assay_metric: isobaric coefficient of expansion

Look over these answered cases.
chemical_structure	isobaric coefficient of expansion
ClC(Cl)(Cl)Cl	0.000946 1/K
c1ccccc1	0.000948 1/K
CCCCCCCCCCCC	0.000742 1/K
CCCCCCCCCC	0.000781 1/K
CCCCCCCCCCCCCC	0.000709 1/K

Prompt line: What measured isobaric coefficient of expansion goes with CCCCCCCCCCCCC ?
Response line: 0.000714 1/K

Prompt line: Dear colleague, I am looking for the recorded isobaric coefficient of expansion of the following molecule: CCCCCCCCCCC
Response line: 0.000759 1/K

Prompt line: # query: isobaric coefficient of expansion of entry CCCCCCCCCCCCCCC
Response line: 0.000699 1/K

Prompt line: Given CCCCCCCCC , state its recorded isobaric coefficient of expansion.
Response line: 0.000803 1/K

---

The following compounds are listed with their measured isobaric coefficient of expansion values.
- protocol_summary: isobaric coefficient of expansion
- condition_context: 308.15 K; 5000 kPa; Liquid; DSC

Worked examples, 8 compounds total:
chemical_structure	isobaric coefficient of expansion
ClC(Cl)(Cl)Cl	0.00121 1/K
CCCCCCCCCCCCCC	0.000913 1/K
CCCCCCCCCCCC	0.000953 1/K
CCCCCCCCCCCCC	0.000905 1/K
CCCCCCCCCCCCCCC	0.000898 1/K
CCCCCCCCCCC	0.000979 1/K
CCCCCCCCCC	0.00102 1/K
CCCCCCCCC	0.00106 1/K

Note: attention shifts to another entry.
Prompt line: Return reported isobaric coefficient of expansion; argument: c1ccccc1
Response line: 0.00121 1/K
